Data origin: patent WO2011095604A1

- measured on: T1, C2 domain of FVIII (Homo sapiens (Human), UniProt P00451 2192-2351)
- T1 construct: Negative control
- T1 sequence: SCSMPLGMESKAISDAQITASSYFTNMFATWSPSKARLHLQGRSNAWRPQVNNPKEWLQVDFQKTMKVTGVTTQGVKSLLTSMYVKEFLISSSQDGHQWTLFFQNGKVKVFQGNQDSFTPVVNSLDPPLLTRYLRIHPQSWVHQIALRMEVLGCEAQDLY
- experiment: BLI (Octet Red), biotinylated peptide on streptavidin sensor
Where no end group is shown, it is not given here.

binder	binding result
NKLTSGDRPGLWFMV (also: biotinylated (position not given here), random peptide of the Octet screening) [SEQ ID NO 6]	no binding
TTWGMRIRLFERQAR (also: biotinylated (position not given here), random peptide of the Octet screening) [SEQ ID NO 2]	no binding
TERQMIHKIFALMSG (also: biotinylated (position not given here), random peptide of the Octet screening) [SEQ ID NO 9]	no binding
